Tested on: Klebsiella pneumoniae MMX 4683 (CDC ART2008030); ESBL, KPC-2
assay overview: In vitro activity (MIC) against Gram-negative aerobic bacteria
Assay type: cell-based
run parameters: read-out: MIC
Each entry below lists one item and its recorded MIC value.
measurement kind: MIC

[[record]]
molecular_string = "COc1c(N2C[C@@H]3CCCN[C@@H]3C2)c(F)cc2c(=O)c(C(=O)O)cn(C3CC3)c12"
target_system = "Klebsiella pneumoniae MMX 4683 (CDC ART2008030); ESBL, KPC-2"
measurement_kind = "MIC"
obs_value = "> 4 µg/mL"

[[record]]
molecular_string = "CN[C@H](CC(C)C)C(=O)N[C@H]1C(=O)N[C@@H](CC(N)=O)C(=O)N[C@H]2C(=O)N[C@H]3C(=O)N[C@H](C(=O)N[C@H](C(=O)O)c4cc(O)cc(O)c4-c4cc3ccc4O)[C@H](O)c3ccc(c(Cl)c3)Oc3cc2cc(c3O[C@@H]2O[C@H](CO)[C@@H](O)[C@H](O)[C@H]2O[C@H]2C[C@](C)(N)[C@H](O)[C@H](C)O2)Oc2ccc(cc2Cl)[C@H]1O"
target_system = "Klebsiella pneumoniae MMX 4683 (CDC ART2008030); ESBL, KPC-2"
measurement_kind = "MIC"
obs_value = "> 32 µg/mL"

[[record]]
molecular_string = "CC(C)(O/N=C(\\C(=O)N[C@@H]1C(=O)N2C(C(=O)[O-])=C(C[n+]3ccccc3)CS[C@H]12)c1csc(N)n1)C(=O)O"
target_system = "Klebsiella pneumoniae MMX 4683 (CDC ART2008030); ESBL, KPC-2"
measurement_kind = "MIC"
obs_value = "> 32 µg/mL"

[[record]]
molecular_string = "Cc1ncc([N+](=O)[O-])n1CCO"
target_system = "Klebsiella pneumoniae MMX 4683 (CDC ART2008030); ESBL, KPC-2"
measurement_kind = "MIC"
obs_value = "> 32 µg/mL"

[[record]]
molecular_string = "C[C@@H](O)[C@H]1C(=O)N2C(C(=O)O)=C(S[C@@H]3CN[C@H](C(=O)N(C)C)C3)[C@H](C)[C@H]12"
target_system = "Klebsiella pneumoniae MMX 4683 (CDC ART2008030); ESBL, KPC-2"
measurement_kind = "MIC"
obs_value = "> 8 µg/mL"

[[record]]
molecular_string = "C[C@H](O)[C@H]1C(=O)N2C(C(=O)O)=C(S[C@@H]3CN[C@H](C(=O)N(C)C)C3)[C@H](C)[C@H]12"
target_system = "Klebsiella pneumoniae MMX 4683 (CDC ART2008030); ESBL, KPC-2"
measurement_kind = "MIC"
obs_value = "1 µg/mL"


====

Each entry below lists one item and its recorded MIC value.
System: Acinetobacter baumannii MMX 2587; MDR
assay overview: In vitro activity (MIC) against Gram-negative aerobic bacteria
Assay type: cell-based
run parameters: read-out: MIC
measurement kind: MIC

[[record]]
molecular_string = "Cc1ncc([N+](=O)[O-])n1CCO"
obs_value = "> 32 µg/mL"

[[record]]
molecular_string = "COc1c(N2C[C@@H]3CCCN[C@@H]3C2)c(F)cc2c(=O)c(C(=O)O)cn(C3CC3)c12"
obs_value = "> 4 µg/mL"

[[record]]
molecular_string = "CC(C)(O/N=C(\\C(=O)N[C@@H]1C(=O)N2C(C(=O)[O-])=C(C[n+]3ccccc3)CS[C@H]12)c1csc(N)n1)C(=O)O"
obs_value = "> 32 µg/mL"

[[record]]
molecular_string = "CN[C@H](CC(C)C)C(=O)N[C@H]1C(=O)N[C@@H](CC(N)=O)C(=O)N[C@H]2C(=O)N[C@H]3C(=O)N[C@H](C(=O)N[C@H](C(=O)O)c4cc(O)cc(O)c4-c4cc3ccc4O)[C@H](O)c3ccc(c(Cl)c3)Oc3cc2cc(c3O[C@@H]2O[C@H](CO)[C@@H](O)[C@H](O)[C@H]2O[C@H]2C[C@](C)(N)[C@H](O)[C@H](C)O2)Oc2ccc(cc2Cl)[C@H]1O"
obs_value = "> 32 µg/mL"

[[record]]
molecular_string = "C[C@H](O)[C@H]1C(=O)N2C(C(=O)O)=C(S[C@@H]3CN[C@H](C(=O)N(C)C)C3)[C@H](C)[C@H]12"
obs_value = "32 µg/mL"

[[record]]
molecular_string = "C[C@@H](O)[C@H]1C(=O)N2C(C(=O)O)=C(S[C@@H]3CN[C@H](C(=O)N(C)C)C3)[C@H](C)[C@H]12"
obs_value = "> 8 µg/mL"


====

System: Enterobacter cloacae MMX 6089
assay overview: In vitro activity (MIC) against Gram-negative aerobic bacteria
Type: cell-based
run parameters: MMX6089, read-out: MIC
measurement kind: MIC (µg/mL)

[[record]]
molecular_string = "Cc1ncc([N+](=O)[O-])n1CCO"
u = "µg/mL"
relational_operator = ">"
obs_value = 32

[[record]]
molecular_string = "CC(C)(O/N=C(\\C(=O)N[C@@H]1C(=O)N2C(C(=O)[O-])=C(C[n+]3ccccc3)CS[C@H]12)c1csc(N)n1)C(=O)O"
u = "µg/mL"
relational_operator = "="
obs_value = 32

[[record]]
molecular_string = "C[C@H](O)[C@H]1C(=O)N2C(C(=O)O)=C(S[C@@H]3CN[C@H](C(=O)N(C)C)C3)[C@H](C)[C@H]12"
u = "µg/mL"
relational_operator = "="
obs_value = 0.12

[[record]]
molecular_string = "COc1c(N2C[C@@H]3CCCN[C@@H]3C2)c(F)cc2c(=O)c(C(=O)O)cn(C3CC3)c12"
u = "µg/mL"
relational_operator = "="
obs_value = 0.03

[[record]]
molecular_string = "C[C@@H](O)[C@H]1C(=O)N2C(C(=O)O)=C(S[C@@H]3CN[C@H](C(=O)N(C)C)C3)[C@H](C)[C@H]12"
u = "µg/mL"
relational_operator = "="
obs_value = 0.06

[[record]]
molecular_string = "CN[C@H](CC(C)C)C(=O)N[C@H]1C(=O)N[C@@H](CC(N)=O)C(=O)N[C@H]2C(=O)N[C@H]3C(=O)N[C@H](C(=O)N[C@H](C(=O)O)c4cc(O)cc(O)c4-c4cc3ccc4O)[C@H](O)c3ccc(c(Cl)c3)Oc3cc2cc(c3O[C@@H]2O[C@H](CO)[C@@H](O)[C@H](O)[C@H]2O[C@H]2C[C@](C)(N)[C@H](O)[C@H](C)O2)Oc2ccc(cc2Cl)[C@H]1O"
u = "µg/mL"
relational_operator = ">"
obs_value = 32


====

Test system: Acinetobacter baumannii ATCC 19606
assay overview: In vitro activity (MIC) against Gram-negative aerobic bacteria
Type: cell-based
run parameters: ATCC19606, read-out: MIC
measurement kind: MIC (µg/mL)

[[record]]
molecular_string = "CN[C@H](CC(C)C)C(=O)N[C@H]1C(=O)N[C@@H](CC(N)=O)C(=O)N[C@H]2C(=O)N[C@H]3C(=O)N[C@H](C(=O)N[C@H](C(=O)O)c4cc(O)cc(O)c4-c4cc3ccc4O)[C@H](O)c3ccc(c(Cl)c3)Oc3cc2cc(c3O[C@@H]2O[C@H](CO)[C@@H](O)[C@H](O)[C@H]2O[C@H]2C[C@](C)(N)[C@H](O)[C@H](C)O2)Oc2ccc(cc2Cl)[C@H]1O"
target_system = "Acinetobacter baumannii ATCC 19606"
u = "µg/mL"
relational_operator = ">"
obs_value = 32

[[record]]
molecular_string = "C[C@@H](O)[C@H]1C(=O)N2C(C(=O)O)=C(S[C@@H]3CN[C@H](C(=O)N(C)C)C3)[C@H](C)[C@H]12"
target_system = "Acinetobacter baumannii ATCC 19606"
u = "µg/mL"
relational_operator = "="
obs_value = 2

[[record]]
molecular_string = "CC(C)(O/N=C(\\C(=O)N[C@@H]1C(=O)N2C(C(=O)[O-])=C(C[n+]3ccccc3)CS[C@H]12)c1csc(N)n1)C(=O)O"
target_system = "Acinetobacter baumannii ATCC 19606"
u = "µg/mL"
relational_operator = "="
obs_value = 8

[[record]]
molecular_string = "COc1c(N2C[C@@H]3CCCN[C@@H]3C2)c(F)cc2c(=O)c(C(=O)O)cn(C3CC3)c12"
target_system = "Acinetobacter baumannii ATCC 19606"
u = "µg/mL"
relational_operator = "="
obs_value = 0.25

[[record]]
molecular_string = "C[C@H](O)[C@H]1C(=O)N2C(C(=O)O)=C(S[C@@H]3CN[C@H](C(=O)N(C)C)C3)[C@H](C)[C@H]12"
target_system = "Acinetobacter baumannii ATCC 19606"
u = "µg/mL"
relational_operator = "="
obs_value = 0.5

[[record]]
molecular_string = "Cc1ncc([N+](=O)[O-])n1CCO"
target_system = "Acinetobacter baumannii ATCC 19606"
u = "µg/mL"
relational_operator = ">"
obs_value = 32


Numbers sourced from patent US20240383899A1.
